- System: hPMBC
- PROTOCOL DESCRIPTION: Chymotrypsin-like ProteasomeGlo assay in hPBMC
- Type: cell-based
- TEST PARAMETERS: Homo sapiens; read-out: Pglo hPBMC
MEASURED QUANTITY: IC50

See these solved cases before continuing.
Cc1ccc2cc1CNC(=O)[C@H](CCc1ccccc1)NC(=O)[C@@H](N)CC(=O)N1CCCC(CCO2)C1 (stereo partly drawn) | 0.1 to 0.5 µM
Cc1ccc2cc1CNC(=O)[C@H](CCc1ccccc1)NC(=O)[C@@H](NC(=O)Cc1nc(-c3ccncc3)n[nH]1)CC(=O)N1CCCC(CCO2)C1 (stereo partly drawn) | 0.1 to 0.5 µM
CC(=O)N[C@H]1CC(=O)N(C)CCCCOc2ccc(C)c(c2)CNC(=O)[C@H](CCc2ccccc2)NC1=O | 0.1 to 0.5 µM

Now for a further compound.
# input compound: CC(=O)N[C@H]1CC(=O)N2CCCC(COc3ccc(C)c(c3)CNC(=O)[C@H](CCc3ccccc3)NC1=O)C2 (stereo partly drawn) ; wanted: its IC50 1 to 5 µM
